Test system: NCI-H23 lung
Assay: NCI-60 one-dose screen, 48 h (100 = growth as untreated, 0 = no growth, -100 = all killed)
Details: 10 µM unless noted
This is part of a sample that, as a whole, favours compounds with a hit. Of some 83,000 tested, about 20% had one in any assay. Calls of active or inactive are those of the source. The calls were made as follows: active = growth percent below 10; inactive = the rest.
Quantity Name: growth

chemical_string=O=C(CN1CCN(c2cc(=O)n(-c3ccccc3)c3ccccc23)CC1)Nc1cccc(C(F)(F)F)c1 quantity_name=growth reading="55.5% (inactive)"
chemical_string=Cn1ccnc1C(=O)/C=C/c1ccc(CNC(=O)c2ccc(Cl)cc2)cc1 quantity_name=growth reading="-7.45% (active)"
chemical_string=CNC(=O)c1c(NC(=O)c2ccccc2C(F)(F)F)sc2c1CCC(=O)C2 quantity_name=growth reading="13.9% (inactive)"

Enquiry: Note down growth recorded for COc1cc(/C=C2\C(=O)Nc3ccccc32)ccc1OCc1ccc(Cl)cc1
Return: 93.3% (inactive)

Enquiry: Return reported growth. Input molecule: Cc1ccc(C(=O)NN2C(=O)/C(=C/C=C/c3ccco3)SC2=S)cc1
Return: 96.7% (inactive)
